Assay: chemical genetic growth profiling, strain panel (AID 1159580);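 note: tested at 20 µM; growth read once vehicle control cultures reached saturation at 30 °C; 1 = growth at the plate median or of vehicle wells; lower values mean less growth of the strain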
Details: S. cerevisiae deletion strains, growth OD, locus YKL067W, strain YNK1, hits give low values
Among all 5,500 compounds or so, about 2,000 (36%) were called active. Not shown: some 18% with an inconclusive outcome. The list shows a part of the results.
Measured normalized growth by item
Note: the reply should be a number with no unit written.

test_smiles=Cc1ccccc1/C=C/c1c[nH]c2ccccc12 recorded_endpoint="normalized growth" test_result=0.91

## Input Value lookup for normalized growth; key = C[C@@H](Nc1ncnc2sc3c(c12)CCCC3)c1ccccc1
## Output 0.917

## Input Value lookup for normalized growth; key = COc1ccc2c(c1)CCc1sc(NC(=O)c3ccco3)nc1-2
## Output 0.92

## Input Value lookup for normalized growth; key = Clc1ccc(CSc2nccn2-c2cc(Cl)ccc2Cl)cc1
## Output 0.894

----------
Experiment: chemical genetic growth profiling, strain panel (AID 1159580)
Conditions: S. cerevisiae deletion strains, growth OD, locus YNR049C, strain mso1, hits give low values
The whole screen tested about 5,500 compounds, of which about 2,000 (36%) were called active. Not shown: some 18% with an inconclusive outcome. Some of the results follow.
RECORDED_ENDPOINT: normalized growth
Note: the reply should be a number with no unit written.

compound="CC(=O)O[C@@H]1CC2C(C)(C)[C@H](O)C=C[C@]2(C)C2CC[C@@]3(C)[C@H](c4ccoc4)OC(=O)C4OC43[C@@]21C (stereo partly specified)" recorded_endpoint="normalized growth" test_result=1.02
compound="CC(=O)O[C@H]1C[C@@H](OC(C)=O)C(C)(C)C2C[C@@H](O)[C@]3(C)C(CC[C@@]4(C)[C@H](c5ccoc5)OC(=O)[C@H]5O[C@]543)[C@]21C (stereo partly specified)" recorded_endpoint="normalized growth" test_result=0.991
compound="CC(=O)O[C@@H]1CC2C(C)(C)[C@@H](O)CC[C@]2(C)C2CC[C@@]3(C)[C@H](c4ccoc4)OC(=O)[C@H]4O[C@]43[C@@]21C (stereo partly specified)" recorded_endpoint="normalized growth" test_result=0.994
compound="C=CCS(=O)C[C@H](N)C(=O)O (stereo partly specified)" recorded_endpoint="normalized growth" test_result=0.997
compound=Cc1oncc1C(=O)Nc1ccc(C(F)(F)F)cc1 recorded_endpoint="normalized growth" test_result=0.992

Now look at this one.
## Input Value lookup for normalized growth; key = Cc1cc(/C=C/c2ccc3cc(N(C)C)ccc3[n+]2C)c(C)n1-c1ccccc1
## Output 1.01

----------
Assay: chemical genetic growth profiling, strain panel (AID 1159580)
Details: S. cerevisiae deletion strains, growth OD, locus YDL074C, strain BRE1, hits give low values
In all, about 5,500 compounds went through this assay and about 2,000 (36%) were called active. Not shown: some 18% with an inconclusive outcome. The list shows a part of the results.
Measured normalized growth by item
Note: the reply should be a number with no unit written.

Solved entries (count: 3):
compound=O=C1CCCCC/C=C/CCCCCCCCO1 test_result=0.949
compound="COC1=CC(=O)OC(CCc2ccc(OC)c(OC)c2)C1 (stereo not given)" test_result=1.02
compound="COc1ccc2c(c1)OCC(Cc1ccc(OC)c(OC)c1)C2=O (stereo not given)" test_result=0.928

## Input Value lookup for normalized growth; key = CCCn1c(=O)c2[nH]c(C3CCCC3)nc2n(CCC)c1=O
## Output 0.973

## Input Value lookup for normalized growth; key = COc1ccc2c(c1)OCC(Cc1ccc(OC)c(OC(C)=O)c1)C2=O (stereo not given)
## Output 1.01

----------
Assay: chemical genetic growth profiling, strain panel (AID 1159580)
Details: S. cerevisiae deletion strains, growth OD, locus YOR290C, strain snf2, hits give low values
Out of some 5,500 compounds screened, about 2,000 (36%) were called active. About 18% were inconclusive and are not listed. The list shows a part of the results.
Measured normalized growth by item
Note: the reply should be a number with no unit written.

Solved entries (count: 8):
compound="CC(C)/C(O)=C1/C(=O)O[C@@H](c2ccoc2)[C@]2(C)C(O)[C@@H](O)[C@@]34OC5(C)OC67CC(C)(C(O)[C@]6(O)[C@@H](O)[C@]3(O5)C12)[C@H](CC(=O)O)[C@]74C (some centres undefined)" test_result=0.907
compound="COc1ccc2c(c1)OCC(Cc1ccc(OC)c(O)c1)C2=O (centres undefined)" test_result=0.897
compound="COc1ccnc(CS(=O)c2nc3ccc(OC(F)F)cc3[nH]2)c1OC (centres undefined)" test_result=1.06
compound="CCCCC(=O)O[C@]1(C(=O)CO)CCC2C3CCC4=CC(=O)CC[C@]4(C)C3[C@@H](O)C[C@@]21C (some centres undefined)" test_result=0.991
compound="CC(=O)C1CC[C@H]2C3CC[C@H]4C[C@H](O)CC[C@]4(C)C3CC[C@]12C (some centres undefined)" test_result=0.951
compound="COC(=O)/C(C)=C\\CC12OC(C)(C)C3CC(C=C4C(=O)c5c(OC)c6c(c(CC=C(C)C)c5OC431)OC(C)(CCC=C(C)C)C=C6)C2=O (centres undefined)" test_result=0.991
compound="COc1cc2c(cc1OC)C1(O)C(=O)c3ccc(O)c(C(=O)O)c3OC1CO2 (centres undefined)" test_result=0.978
compound="CC1C/C=C/C=C/C=C/C=C/C(O[C@@H]2O[C@H](C)[C@@H](O)[C@H](N)[C@@H]2O)CC2OC(O)(CC(O)CC3OC3/C=C/C(=O)O1)CC(O)C2C(=O)O (some centres undefined)" test_result=0.953

Now look at this one.
## Input Value lookup for normalized growth; key = CN1CCC[C@@H]1CCO[C@](C)(c1ccccc1)c1ccc(Cl)cc1
## Output 0.957

----------
Assay: chemical genetic growth profiling, strain panel (AID 1159580);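 note: tested at 20 µM; growth read once vehicle control cultures reached saturation at 30 °C; 1 = growth at the plate median or of vehicle wells; lower values mean less growth of the strain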
Conditions: S. cerevisiae deletion strains, growth OD, locus YLR262C, strain YPT6 (second series), hits give low values
Screen size: about 5,500 compounds; about 2,000 (36%) were called active. Another 18% or so got no clear call; they are omitted. Some of the results follow.
Measured normalized growth by item
Note: the reply should be a number with no unit written.

compound=CCCNC(=O)NS(=O)(=O)c1ccc(Cl)cc1 test_result=1

## Input Value lookup for normalized growth; key = CCN1C[C@@]2(COC)C3[C@@H](OC)[C@H]4[C@@H]1[C@]3(C(OC)C[C@H]2O)C1C[C@@]2(O)[C@H](OC(=O)c3ccccc3)C1[C@]4(OC(C)=O)[C@@H](O)[C@@H]2OC (stereo partly specified)
## Output 0.994

## Input Value lookup for normalized growth; key = CC1C/C=C/C=C/C=C/C=C/C(O[C@@H]2O[C@H](C)[C@@H](O)[C@H](N)[C@@H]2O)CC2OC(O)(CC(O)CC3OC3/C=C/C(=O)O1)CC(O)C2C(=O)O (stereo partly specified)
## Output 1.01

----------
Test: chemical genetic growth profiling, strain panel (AID 1159580);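 note: tested at 20 µM; growth read once vehicle control cultures reached saturation at 30 °C; 1 = growth at the plate median or of vehicle wells; lower values mean less growth of the strain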
Settings: S. cerevisiae deletion strains, growth OD, locus YHR027C, strain rpn1, hits give low values
Among all 5,500 compounds or so, about 2,000 (36%) were called active. About 18% were inconclusive and are not listed. The list shows a part of the results.
RECORDED_ENDPOINT: normalized growth
Note: the reply should be a number with no unit written.

## Input Value lookup for normalized growth; key = CC1OC(O[C@H]2/C=C/C=C/C=C/C=C/C=C/C=C/C=C/[C@H](C)[C@@H](O)[C@@H](C)[C@H](C)OC(=O)CC(O)CC(O)CCC(O)C(O)CC(O)C[C@]3(O)C[C@H](O)C(C(=O)O)C(C2)O3)C(O)[C@H](N)C1O (some centres not stated)
## Output 0.991

----------
Experiment: chemical genetic growth profiling, strain panel (AID 1159580);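 note: tested at 20 µM; growth read once vehicle control cultures reached saturation at 30 °C; 1 = growth at the plate median or of vehicle wells; lower values mean less growth of the strain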
Settings: S. cerevisiae deletion strains, growth OD, locus YPR025C, strain CCL1, hits give low values
Hit rate of the full screen: of about 5,500 compounds, about 2,000 (36%) were called active. Another 18% or so got no clear call; they are omitted. Some of the results follow.
RECORDED_ENDPOINT: normalized growth
Note: the reply should be a number with no unit written.

Solved entries (count: 3):
compound=Cc1c(S(=O)(=O)Nc2cccc([N+](=O)[O-])c2)sc2ccc(Cl)cc12 test_result=0.97
compound=N#Cc1ccc(Oc2sccc2[N+](=O)[O-])cc1 test_result=0.971
compound=O=S(=O)(Nc1csc(C(F)(F)F)c1-c1ccccc1)c1cc(Br)c(Br)s1 test_result=0.958

## Input Value lookup for normalized growth; key = Cc1cccc(N=NC(C(=O)C(F)(F)F)=C(O)c2cccs2)c1
## Output 0.985

## Input Value lookup for normalized growth; key = N#CC(C#N)=Cc1c(-c2ccccc2Cl)[nH]c2ccccc12
## Output 0.961

## Input Value lookup for normalized growth; key = O=C(NNc1ccccc1)c1cc(-c2ccc(Cl)cc2)oc1C(F)(F)F
## Output 0.951

## Input Value lookup for normalized growth; key = CC1CCC(C(C)C)C(N(Cc2ccccc2)C(=O)c2ccccc2)C1 (configuration not stated)
## Output 0.988
